B1: PhoQ; a variant is named by its letters at X, in order, P23837 (parent)
chain: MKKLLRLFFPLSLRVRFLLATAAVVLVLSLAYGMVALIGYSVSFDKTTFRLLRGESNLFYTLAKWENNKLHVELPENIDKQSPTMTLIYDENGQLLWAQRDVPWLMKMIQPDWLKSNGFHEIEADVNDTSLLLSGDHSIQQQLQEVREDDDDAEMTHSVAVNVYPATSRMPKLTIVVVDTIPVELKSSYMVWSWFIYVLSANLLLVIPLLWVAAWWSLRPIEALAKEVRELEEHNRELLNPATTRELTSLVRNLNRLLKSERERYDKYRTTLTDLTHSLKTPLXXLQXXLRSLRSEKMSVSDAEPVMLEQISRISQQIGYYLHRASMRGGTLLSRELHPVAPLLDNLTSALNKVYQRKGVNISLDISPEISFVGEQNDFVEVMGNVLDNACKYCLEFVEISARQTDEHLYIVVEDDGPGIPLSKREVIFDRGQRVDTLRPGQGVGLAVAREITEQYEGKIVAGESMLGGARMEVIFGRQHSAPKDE

Variants of: B1
assay explanation: enrichment ratio after two sorts for PhoP signalling (ratio (wild type AVST 3.29)); higher = more functional
run parameters: with PhoP (E. coli)
Whole data set: some 140,000 sequences, median “enrichment ratio after two sorts for PhoP signalling” near 0, cut for the highest 2% near 11. Shown is part of a subset that was picked to be rich in the highest values.
readout type: enrichment ratio

- change: "WYLE"
  test value: "≤ 0.25"
- change: "NNAF"
  test value: "≤ 0.25"
- change: "QGPY"
  test value: "≤ 0.25"
- change: "AEVT"
  test value: 15.3
- change: "FFGY"
  test value: "≤ 0.25"
- change: "SKLT"
  test value: 4.23
- change: "AELT"
  test value: 6.58
- change: "AEEV"
  test value: 2.19
- change: "QYEG"
  test value: "≤ 0.25"
- change: "KEFY"
  test value: "≤ 0.25"
- change: "AEFT"
  test value: 6.27
- change: "SKLL"
  test value: 14
- change: "IMCF"
  test value: "≤ 0.25"
- change: "YALL"
  test value: 10.6
- change: "GVVL"
  test value: 1.14
- change: "ADAL"
  test value: "≤ 0.25"
- change: "YPKK"
  test value: "≤ 0.25"
- change: "IDYN"
  test value: "≤ 0.25"
- change: "DSIT"
  test value: "≤ 0.25"
- change: "IFGQ"
  test value: "≤ 0.25"
- change: "AENT"
  test value: 10.7
- change: "HILL"
  test value: "≤ 0.25"
